- assay details: Binding affinity to almond beta-glucosidase by FRET assay
- Set-up: species or system Prunus dulcis
readout label: pKd
The meaning of pKd here: minus log10 of the concentration in molar units.

Task: Return reported pKd; argument: CN(C)c1cccc2c(S(=O)(=O)NCCCC/N=C3\SC[C@@H]4[C@@H](O)[C@H](O)[C@@H](O)[C@@H](O)N34)cccc12
Output: 6.70
